Task for the reader: assign each of the following compounds its reported remaining activity at 30 µM.
Molecular target: Aβ25-35 peptide (Homo sapiens, UniProt P05067)
Test: Antifibrillogenic activity, thioflavine T (ThT) assay with Aβ25-35 peptide
Format: biochemical
Conditions: compound 30 μM, Aβ25-35 peptide 100 μM, 50 μM phosphate buffer pH 5, 25° C., 24 hours; ThT 47 μM; ex 420 nm, em 490 nm; less fluorescence = less amyloid; read-out: ThT fluorescence (% of control)
Procedure: The compounds of the present invention are also endowed with antifibrillogenic activity. When Aβ peptides are incubated with the compounds, a reduction in the formation of amyloid fibrils is observed. The amount of amyloid that results from peptide aggregation can be evaluated using the thioflavine T (ThT) assay as reported in the literature by Naiki et al., Analytical Biochemistry 1989, vol. 177, p. […] The less the fluorescence the less the amount of amyloid formed during the incubation period. […]
Use % as the unit, but write only the number.

Exercise: Recall the recorded remaining activity at 30 µM for COc1cccc2c1C(=O)c1c(O)c3c(c(O)c1C2=O)C[C@@](O)(C(=O)CN1CCN(C(=O)C(F)(F)F)CC1)C[C@@H]3O [Compound A2] with Aβ25-35 peptide (Homo sapiens, UniProt P05067) and state it.
Key: 22.2

Exercise: Try the compound COc1cccc2c1C(=O)c1c(O)c3c(c(O)c1C2=O)C[C@@](O)(C(=O)CN1CC=CCC1)C[C@@H]3O[C@H]1C[C@H](NC(=O)C(F)(F)F)[C@H](I)[C@H](C)O1 [Compound A7]
Key: 33.2

Exercise: Try the compound COc1cccc2c1C(=O)c1c(O)c3c(c(O)c1C2=O)C[C@@](O)(C(=O)CN1CCN(S(=O)(=O)C(F)(F)F)CC1)C[C@@H]3O [Compound A3]
Key: 23

Exercise: Try the compound CCN(CC(=O)[C@]1(O)Cc2c(O)c3c(c(O)c2[C@@H](O)C1)C(=O)c1c(OC)cccc1C3=O)Cc1cc(C(F)(F)F)cc(C(F)(F)F)c1 [Compound A5]
Key: 23.1

Exercise: Try the compound COc1cccc2c1C(=O)c1c(O)c3c(c(O)c1C2=O)C[C@@](O)(C(=O)CO)C[C@@H]3O[C@H]1C[C@H](N)[C@H](I)[C@H](C)O1 [IDOX, iododoxorubicin, reference compound]
Key: 41
